This collection of values is drawn from patent US20210277126A1.

Biological target: T1, cynomolgus monkey CLL1 ECD (65-265) (cynomolgus monkey)
T1 construct: Expressed in 293-F cells and purified by IMAC; also called cynoCLL1; recombinant cynomolgus monkey CLL1 protein
T1 chain: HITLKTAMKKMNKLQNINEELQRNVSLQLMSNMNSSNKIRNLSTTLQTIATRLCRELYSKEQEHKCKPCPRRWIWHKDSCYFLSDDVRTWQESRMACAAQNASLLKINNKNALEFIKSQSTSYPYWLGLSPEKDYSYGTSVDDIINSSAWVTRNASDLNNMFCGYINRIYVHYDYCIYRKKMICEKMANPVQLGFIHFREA
Test: SPR (Biacore T200), sdAb supernatant, recombinant cynomolgus CLL1
Procedure: The unique clones were grown in 2YT medium and induced by IPTG for sdAb expression in the supernatant. The supernatants of unique binders were analyzed for their ability to bind to a CLL1-expressing HKE293/huCLL-1 cell line and cancer cell line AML193 using a FACS assay. Affinities of selected binders in supernatants to recombinant human and cynomolgus monkey CLL1 proteins were determined by surface plasmon resonance (SPR) on a BIACORE® T200 instrument. […]
VALUE_KIND: pKd
# log scale: pKd equals minus log10 of the concentration in mol/L

Answered examples (4):
* AS82658 sdAb (VHH, Camel sdAb tested as E. coli culture supernatant; not shown: C-terminal His-tag encoded by the soluble expression vector) VHH: QVQLVESGGGSVQAGGALSLSCAASGYTVRIDYMGWYRQTPGKGREPVATIASNGGTAYADSVEGRFTISQDNAKNSVYLQMNTLKPGDTAMYYCAAGTWPTLTYFGQGTQVTVSS | 8.72
* AS82480 sdAb (VHH, Camel sdAb tested as E. coli culture supernatant; not shown: C-terminal His-tag encoded by the soluble expression vector) VHH: EVQLVESGGGSVQAGGSLRLSCAASGVTYSSACMGWFRQAPGKGREVVAVLYAGGSTTHYASSVKERFTISQDNAKNTVYLQMNSLKPEDTAVYYCAAALGDRSSCEWRYWGQGTQVTVSS | 7.33
* AS83183 sdAb (VHH, Camel sdAb tested as E. coli culture supernatant; not shown: C-terminal His-tag encoded by the soluble expression vector) VHH: QVHLVESGGGSVQSGGSLRLSCAASGYAYRSYCMGWFRQAPGKVLEGVAAIESDGTTTYADSVMGRFTISQDNAKNALYLQMNSLKPEDTAMYHCAAVKGSCDSASSDTPSYWGQGTQVTVSS | 9.59
* AS82505 sdAb (VHH, Camel sdAb tested as E. coli culture supernatant; not shown: C-terminal His-tag encoded by the soluble expression vector) VHH: QVQLAESGGGLVQPGGSLRLSCVASGFTFSSYDMSWVRQAPGKGVEWVSTINSGGGSTYYAESAKGRFTISRDNAKNTLYLQLNSLKTEDTAMYYCVKGFPDDDGPGELSREYNYWGQGTQVTVSS | 9.23

Prompt: Which pKd is listed for AS83791 sdAb (VHH, Tested as E. coli culture supernatant; not shown: C-terminal His-tag encoded by the soluble expression vector) VHH: QVKLVESGGGLVQPGGSLRLSCVASGFAFSSADMSWVRQAPGKGVEAVSVINRDGASTYYADSVKGRFTISRDNAKSTLYLQMNSLKPEDTAMYHCAVVPENEYESGSYNYWGQGTQVTVSS ?
Completion: 9.66
